Examples of compounds with documented Relative Activity (%) follow.
tested on: alkaline pullulanase Y; experiment: Substrate specificity (relative activity on various substrates); format: biochemical, Bacillus sp. KSM-AP1378; conditions: substrate concentration 1 x 10⁻² M
Answer shape: numeric part, then the unit.

A selection of reference data follows.
compound	reported-measurement
OC[C@H]1O[C@H](O[C@H]2[C@H](O)[C@@H](O)[C@@H](O[C@H]3[C@H](O)[C@@H](O)C(O)O[C@@H]3CO)O[C@@H]2CO)[C@H](O)[C@@H](O)[C@@H]1O (stereo partly drawn)	0%
OC[C@H]1O[C@H](O[C@H]2[C@H](O)[C@@H](O)C(O)O[C@@H]2CO)[C@H](O)[C@@H](O)[C@@H]1O (mixture of isomers)	0%

Ask | Specify the recorded Relative Activity (%) for OC[C@H]1O[C@H](OC[C@H]2OC(O)[C@H](O)[C@@H](O)[C@@H]2O)[C@H](O)[C@@H](O)[C@@H]1O (stereo partly drawn) , system: alkaline pullulanase Y.
Reply | 4%
